# SYSTEM UNDER TEST: IKZF1 (Homo sapiens, UniProt Q13422)
# Construct: expressed in transfected cells; host or cells: Flp-In 293
# Sequence (Q13422 83-213 isoform Q13422-7 limits assumed): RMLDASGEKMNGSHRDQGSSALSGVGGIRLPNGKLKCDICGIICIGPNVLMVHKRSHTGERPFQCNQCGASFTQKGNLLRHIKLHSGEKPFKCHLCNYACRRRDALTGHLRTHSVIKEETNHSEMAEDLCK
# Sequence (Q96SW2 whole entry partner): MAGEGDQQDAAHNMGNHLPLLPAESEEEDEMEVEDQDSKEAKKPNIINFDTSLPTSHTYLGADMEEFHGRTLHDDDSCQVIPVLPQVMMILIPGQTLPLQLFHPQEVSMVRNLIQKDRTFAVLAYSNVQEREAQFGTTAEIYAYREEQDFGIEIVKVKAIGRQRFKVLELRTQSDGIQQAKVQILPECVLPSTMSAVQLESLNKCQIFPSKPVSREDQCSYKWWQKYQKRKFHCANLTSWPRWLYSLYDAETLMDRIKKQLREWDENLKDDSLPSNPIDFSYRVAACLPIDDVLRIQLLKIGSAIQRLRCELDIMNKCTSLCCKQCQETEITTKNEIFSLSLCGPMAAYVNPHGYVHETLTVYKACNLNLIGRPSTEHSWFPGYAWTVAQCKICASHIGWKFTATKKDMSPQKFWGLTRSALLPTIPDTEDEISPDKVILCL
# Sequence (Q16531 2-1140 partner limits assumed): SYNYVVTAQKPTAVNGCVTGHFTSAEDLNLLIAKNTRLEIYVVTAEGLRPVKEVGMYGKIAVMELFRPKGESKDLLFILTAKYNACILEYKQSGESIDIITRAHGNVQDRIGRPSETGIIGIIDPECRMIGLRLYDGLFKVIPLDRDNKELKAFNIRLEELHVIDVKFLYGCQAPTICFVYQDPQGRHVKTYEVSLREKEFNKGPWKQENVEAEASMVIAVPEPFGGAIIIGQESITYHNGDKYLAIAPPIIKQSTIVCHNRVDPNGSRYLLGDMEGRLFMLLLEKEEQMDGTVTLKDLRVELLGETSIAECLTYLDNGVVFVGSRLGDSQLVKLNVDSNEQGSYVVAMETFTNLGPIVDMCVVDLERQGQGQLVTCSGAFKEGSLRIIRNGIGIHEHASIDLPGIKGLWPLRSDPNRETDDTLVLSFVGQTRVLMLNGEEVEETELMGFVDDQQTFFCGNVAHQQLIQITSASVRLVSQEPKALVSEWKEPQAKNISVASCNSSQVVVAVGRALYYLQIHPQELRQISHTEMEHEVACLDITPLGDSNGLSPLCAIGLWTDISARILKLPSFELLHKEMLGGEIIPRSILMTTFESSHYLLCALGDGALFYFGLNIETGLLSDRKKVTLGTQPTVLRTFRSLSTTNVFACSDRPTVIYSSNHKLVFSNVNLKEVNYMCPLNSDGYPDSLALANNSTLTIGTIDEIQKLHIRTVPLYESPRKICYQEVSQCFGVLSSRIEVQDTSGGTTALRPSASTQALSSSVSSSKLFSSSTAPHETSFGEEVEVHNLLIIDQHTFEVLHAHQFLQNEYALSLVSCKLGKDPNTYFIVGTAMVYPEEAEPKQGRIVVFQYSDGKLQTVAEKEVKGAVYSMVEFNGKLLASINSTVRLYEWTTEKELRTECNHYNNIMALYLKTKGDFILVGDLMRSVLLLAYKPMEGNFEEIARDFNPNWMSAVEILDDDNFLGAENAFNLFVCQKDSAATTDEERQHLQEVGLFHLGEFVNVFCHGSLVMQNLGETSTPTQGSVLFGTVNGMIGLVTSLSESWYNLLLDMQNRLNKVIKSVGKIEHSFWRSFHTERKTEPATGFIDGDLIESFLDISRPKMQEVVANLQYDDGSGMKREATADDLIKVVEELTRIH
# EXPERIMENT: Cellular degradation assay, eGFP-IKZF1Δ fusion with mCherry reporter in Flp-In 293 cells
# Assay type: cell-based
# RUN PARAMETERS: compound concentration 2.00E−06; 5 h incubation; n=1
Returns class 1 if the recorded IKZF1 GFP/RFP Relative Abundance is greater than or equal to 0.3, and class 0 otherwise.

Cc1ccc(NC(=O)N2Cc3ccc(NC4=CC(=O)N(C5CCC(=O)NC5=O)C4=O)cc3C2)cc1Cl (centres unmarked)
class 1
COC(=O)CCNC1=CC(=O)N(C2CCC(=O)NC2=O)C1=O (centres unmarked)
class 1
CN(C)C(=O)Cc1ccc(NC2=CC(=O)N(C3CCC(=O)NC3=O)C2=O)cc1 (centres unmarked)
class 1
O=C1CCC(N2C(=O)C=C(Nc3ccccc3)C2=O)C(=O)N1 (centres unmarked)
class 0
Cc1ccc(NC2=CC(=O)N(C3CCC(=O)NC3=O)C2=O)cc1C (centres unmarked)
class 1

I'd appreciate it if you could say whether CCC(NC(=O)Nc1ccc(C)c(Cl)c1)c1cccc(NC2=CC(=O)N(C3CCC(=O)NC3=O)C2=O)c1 (centres unmarked) has IKZF1 GFP/RFP Relative Abundance at least equal to 0.3.
class 0

I'd appreciate it if you could say whether Cc1ccc(NC(=O)NCc2ccccc2NC2=CC(=O)N(C3CCC(=O)NC3=O)C2=O)cc1Cl (centres unmarked) has IKZF1 GFP/RFP Relative Abundance at least equal to 0.3.
class 1

I'd appreciate it if you could say whether Cc1ccc(NC(=O)Cc2cccc(NC3=CC(=O)N(C4CCC(=O)NC4=O)C3=O)c2)cc1Cl (centres unmarked) has IKZF1 GFP/RFP Relative Abundance at least equal to 0.3.
class 0
